biological target: hNav 1.1 channel (Homo sapiens, UniProt P35498); construct: expressed in transfected cells; experiment: Block of cloned hNav1.1 channel in CHO cells (IonWorks Quattro); format: cell-based; details: hNav1.1 in CHO cells; frequency-dependent block at 10 Hz (TP11); read-out: IC50 10 Hz block
Mark TRUE only when IC50 stays strictly below 40 µM. Values equal to the cut-off are FALSE.

compound: Cc1cccc(C)c1OCC(C)NC(=O)C1CCCCN1 (centres unmarked) [Mexiletine pipecolic acid amide]
assigned.label: TRUE
//
compound: Cc1cccc(C)c1OCC(C)NC(=O)C(N)C(C)O (centres unmarked) [Mexiletine threonine amide]
assigned.label: FALSE
//
compound: Cc1cccc(C)c1OCC(C)NC(=O)C(N)CN (stereo not drawn) [Mexiletine β amino alanine amide]
assigned.label: FALSE
//
compound: Cc1cccc(C)c1OCC(C)NC(=O)c1ccncc1 (centres unmarked) [Mexiletine isonicotinic acid amide]
assigned.label: FALSE
//
compound: Cc1cccc(C)c1OCC(C)NC(=O)[C@@H](N)CCC(N)=O (some centres unmarked) [Mexiletine glutamine amide]
assigned.label: FALSE
//
compound: Cc1cccc(C)c1OCC(C)NC(=O)CN(C)C (centres unmarked) [Mexiletine dimethylglycine amide]
assigned.label: TRUE
//
compound: Cc1cccc(C)c1OCC(C)NC(=O)c1cccnc1 (centres unmarked) [Mexiletine nicotinic acid amide]
assigned.label: FALSE
//
compound: Cc1cccc(C)c1OCC(C)NC(=O)[C@@H](N)CCC(=O)O.Cl (some centres unmarked) [Mexiletine glutamic acid amide, hydrochloride]
assigned.label: FALSE

Values were extracted from patent US20110028552A1.
